Reference source: patent US12390532B2

# Test system: SR cells (NPM-ALK, human anaplastic large cell lymphoma cells)
# Experimental details: Proliferation inhibition (IC50) in SR cells, CCK8 (WST) reagent
# Assay type: cell-based
# Assay context: 72 h, SR cells, WST reagent, 72 hours, read-out: IC50 (half inhibitory concentration), Brigatinib series in lymphoma cell lines
Label T when IC50 < 7 nM; otherwise F.

*Q* For this molecule, is IC50 lower than 7 nM? COc1cc(N2CCC(N3CCN(CCCCC#Cc4cccc5c4CN(C4CCC(=O)NC4=O)C5=O)CC3)CC2)ccc1Nc1ncc(Cl)c(Nc2ccccc2P(C)(C)=O)n1 (stereo not shown)
*A* T

*Q* For this molecule, is IC50 lower than 7 nM? COc1cc(N2CCC(N(C)C(=O)CCCCCSc3cccc4c3CN(C3CCC(=O)NC3=O)C4=O)CC2)ccc1Nc1ncc(Cl)c(Nc2ccccc2P(C)(C)=O)n1 (stereo not shown)
*A* F

*Q* For this molecule, is IC50 lower than 7 nM? COc1cc(N2CCC(N3CCN(C(=O)COCCOCCOCCNc4cccc5c4CN(C4CCC(=O)NC4=O)C5=O)CC3)CC2)ccc1Nc1ncc(Cl)c(Nc2ccccc2P(C)(C)=O)n1 (stereo not shown)
*A* F

*Q* For this molecule, is IC50 lower than 7 nM? COc1cc(N2CCC(N3CCN(CCCCc4cccc5c4CN(C4CCC(=O)NC4=O)C5=O)CC3)CC2)ccc1Nc1ncc(Cl)c(Nc2ccccc2P(C)(C)=O)n1 (stereo not shown)
*A* T

*Q* For this molecule, is IC50 lower than 7 nM? COc1cc(N2CCC(N(C)C(=O)CSc3cccc4c3CN(C3CCC(=O)NC3=O)C4=O)CC2)ccc1Nc1ncc(Cl)c(Nc2ccccc2P(C)(C)=O)n1 (stereo not shown)
*A* F

*Q* For this molecule, is IC50 lower than 7 nM? COc1cc(N2CCC(N(C)CCCCCCSc3cccc4c3CN(C3CCC(=O)NC3=O)C4=O)CC2)ccc1Nc1ncc(Cl)c(Nc2ccccc2P(C)(C)=O)n1 (stereo not shown)
*A* T

*Q* For this molecule, is IC50 lower than 7 nM? COc1cc(N2CCC(N3CCNCC3)CC2)ccc1Nc1ncc(Cl)c(Nc2ccccc2P(C)(C)=O)n1 [Brigatinib derivative C (SIAIS164005), reference compound]
*A* F

*Q* For this molecule, is IC50 lower than 7 nM? COc1cc(N2CCC(N3CCN(Cc4ccc(CSc5cccc6c5CN(C5CCC(=O)NC5=O)C6=O)cc4)CC3)CC2)ccc1Nc1ncc(Cl)c(Nc2ccccc2P(C)(C)=O)n1 (stereo not shown)
*A* T

*Q* For this molecule, is IC50 lower than 7 nM? COc1cc(N2CCC(N(C)CCCC#Cc3cccc4c3CN(C3CCC(=O)NC3=O)C4=O)CC2)ccc1Nc1ncc(Cl)c(Nc2ccccc2P(C)(C)=O)n1 (stereo not shown)
*A* T

*Q* For this molecule, is IC50 lower than 7 nM? COc1cc(N2CCC(NCCCC#Cc3cccc4c3CN(C3CCC(=O)NC3=O)C4=O)CC2)ccc1Nc1ncc(Cl)c(Nc2ccccc2P(C)(C)=O)n1 (stereo not shown)
*A* T

*Q* For this molecule, is IC50 lower than 7 nM? COc1cc(N2CCC(N(C)CCCCCSc3cccc4c3CN(C3CCC(=O)NC3=O)C4=O)CC2)ccc1Nc1ncc(Cl)c(Nc2ccccc2P(C)(C)=O)n1 (stereo not shown)
*A* T

*Q* For this molecule, is IC50 lower than 7 nM? COc1cc(N2CCC(N3CCN(CCSc4cccc5c4CN(C4CCC(=O)NC4=O)C5=O)CC3)CC2)ccc1Nc1ncc(Cl)c(Nc2ccccc2P(C)(C)=O)n1 (stereo not shown)
*A* T

*Q* For this molecule, is IC50 lower than 7 nM? COc1cc(N2CCC(N3CCN(CCCCCc4cccc5c4CN(C4CCC(=O)NC4=O)C5=O)CC3)CC2)ccc1Nc1ncc(Cl)c(Nc2ccccc2P(C)(C)=O)n1 (stereo not shown)
*A* T

*Q* For this molecule, is IC50 lower than 7 nM? COc1cc(N2CCC(N3CCN(CCCC#Cc4cccc5c4C(=O)N(C4CCC(=O)NC4=O)C5=O)CC3)CC2)ccc1Nc1ncc(Cl)c(Nc2ccccc2P(C)(C)=O)n1 (stereo not shown)
*A* F

*Q* For this molecule, is IC50 lower than 7 nM? COc1cc(N2CCC(NCCCCCCSc3cccc4c3CN(C3CCC(=O)NC3=O)C4=O)CC2)ccc1Nc1ncc(Cl)c(Nc2ccccc2P(=O)(OC)OC)n1 (stereo not shown)
*A* T
